target: c-Raf (Homo sapiens); test: Luciferase-coupled chemiluminescence kinase assay (ATP consumption), c-Raf; type: biochemical; settings: read-out: cRaf-1 IC50
Sequence (P04049 whole entry): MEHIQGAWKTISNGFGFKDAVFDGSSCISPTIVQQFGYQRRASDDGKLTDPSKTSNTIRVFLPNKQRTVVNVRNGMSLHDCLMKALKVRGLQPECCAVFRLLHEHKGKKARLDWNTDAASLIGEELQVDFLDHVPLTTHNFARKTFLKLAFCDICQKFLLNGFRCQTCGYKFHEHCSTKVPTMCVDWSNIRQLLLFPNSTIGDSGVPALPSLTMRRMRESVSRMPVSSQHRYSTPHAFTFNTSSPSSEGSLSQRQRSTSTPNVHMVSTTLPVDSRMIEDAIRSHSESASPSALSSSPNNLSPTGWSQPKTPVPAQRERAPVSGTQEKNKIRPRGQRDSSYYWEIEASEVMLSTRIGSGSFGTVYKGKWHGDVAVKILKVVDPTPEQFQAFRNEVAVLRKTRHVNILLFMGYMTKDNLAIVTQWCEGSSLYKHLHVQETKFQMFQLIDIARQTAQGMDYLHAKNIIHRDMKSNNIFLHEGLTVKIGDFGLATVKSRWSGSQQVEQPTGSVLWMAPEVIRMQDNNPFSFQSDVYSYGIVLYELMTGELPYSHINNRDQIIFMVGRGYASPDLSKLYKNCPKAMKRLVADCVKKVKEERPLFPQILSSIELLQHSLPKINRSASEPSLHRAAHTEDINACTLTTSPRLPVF
Documented IC50 across a set of compounds

## Task Give the measured IC50 of COC(=O)Nc1nc2cc(C3(O)c4ccccc4C(=O)N3c3cccc(N)c3)ccc2[nH]1 (stereo not shown) .
## Result < 100 nM

* * *

Documented IC50 across a set of molecules
target: UniProt:P15056; experiment: Luciferase-coupled chemiluminescence kinase assay (ATP consumption), B-Raf; format: biochemical; details: read-out: bRaf IC50
Sequence (P15056 whole entry): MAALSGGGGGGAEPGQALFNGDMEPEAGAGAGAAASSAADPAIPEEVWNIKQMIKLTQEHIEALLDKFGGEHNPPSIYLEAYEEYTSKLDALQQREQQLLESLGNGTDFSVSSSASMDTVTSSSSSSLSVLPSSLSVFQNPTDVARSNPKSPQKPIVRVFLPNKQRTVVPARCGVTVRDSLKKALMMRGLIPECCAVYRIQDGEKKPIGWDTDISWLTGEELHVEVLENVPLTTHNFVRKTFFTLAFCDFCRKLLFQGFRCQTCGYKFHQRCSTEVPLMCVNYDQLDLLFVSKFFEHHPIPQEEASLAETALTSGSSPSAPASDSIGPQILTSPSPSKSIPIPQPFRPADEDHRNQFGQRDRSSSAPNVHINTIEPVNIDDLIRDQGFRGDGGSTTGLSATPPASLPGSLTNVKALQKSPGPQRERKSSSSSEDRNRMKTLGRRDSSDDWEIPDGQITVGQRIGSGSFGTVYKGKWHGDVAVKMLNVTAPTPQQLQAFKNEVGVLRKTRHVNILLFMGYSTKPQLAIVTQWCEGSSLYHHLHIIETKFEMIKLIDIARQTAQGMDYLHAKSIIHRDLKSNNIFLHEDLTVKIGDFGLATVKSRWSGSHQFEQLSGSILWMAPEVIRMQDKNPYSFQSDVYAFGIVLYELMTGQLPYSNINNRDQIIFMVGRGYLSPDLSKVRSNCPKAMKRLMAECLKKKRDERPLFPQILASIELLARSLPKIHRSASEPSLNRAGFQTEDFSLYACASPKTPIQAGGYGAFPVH

Sample answers from the record:
# molecule, IC50
rows = [
    ("O=C1COc2ccc(C3(O)c4ccccc4C(=O)N3c3cccc(-c4ccccc4)c3)cc2N1 (stereo not drawn)", "≥ 10 µM"),
    ("COC(=O)Nc1nc2cc(C3(O)c4ccccc4C(=O)N3CC(C)(C)C)ccc2[nH]1 (stereo not drawn)", "1 to 10 µM"),
    ("COC(=O)Nc1nc2cc(C3(O)c4ccccc4C(=O)N3c3ccc(F)c(F)c3)ccc2[nH]1 (stereo not drawn)", "< 0.1 µM"),
    ("O=C1COc2ccc(C3(O)c4ccccc4C(=O)N3Cc3ccccc3F)cc2N1 (stereo not drawn)", "≥ 10 µM"),
    ("COC(=O)Nc1nc2cc(C3(O)c4ccccc4C(=O)N3c3cccc(C4CCNCC4)c3)ccc2[nH]1 (stereo not drawn)", "0.1 to 1 µM"),
]

## Task Give the measured IC50 of O=C1COc2ccc(C3(O)c4ccccc4C(=O)N3C3CCNCC3)cc2N1 (stereo not drawn) .
## Result ≥ 10 µM

## Task Give the measured IC50 of COC(=O)Nc1nc2cc(C3(O)c4ccccc4C(=O)N3c3ccc(F)c(Cl)c3F)ccc2[nH]1 (stereo not drawn) .
## Result < 0.1 µM

## Task Give the measured IC50 of O=C1COc2ccc(C3(O)c4ccccc4C(=O)N3Cc3cccc(F)c3)cc2N1 (stereo not drawn) .
## Result 1 to 10 µM

## Task Give the measured IC50 of O=C(CC(O)(C(F)(F)F)C(F)(F)F)Nc1nc2cc(C3(O)c4ccccc4C(=O)N3Cc3ccccc3)ccc2[nH]1 (stereo not drawn) .
## Result 1 to 10 µM

## Task Give the measured IC50 of COC(=O)Nc1nc2cc(C3(O)c4ccccc4C(=O)N3[C@@H](C)c3ccccc3)ccc2[nH]1 (stereo partly drawn) .
## Result 1 to 10 µM

## Task Give the measured IC50 of COC(=O)Nc1nc2cc(C3(O)c4ccccc4C(=O)N3CC(C)C)ccc2[nH]1 (stereo not drawn) .
## Result 0.1 to 1 µM

## Task Give the measured IC50 of COC(=O)Nc1nc2cc(C3(O)c4ccccc4C(=O)N3CC3CCCCC3)ccc2[nH]1 (stereo not drawn) .
## Result < 0.1 µM

## Task Give the measured IC50 of N#Cc1cccc(N2C(=O)c3ccccc3C2(O)c2ccc3c(c2)NC(=O)CO3)c1 (stereo not drawn) .
## Result 1 to 10 µM

## Task Give the measured IC50 of COC(=O)Nc1nc2cc(C3(O)c4ccccc4C(=O)N3c3cccc(Br)c3F)ccc2[nH]1 (stereo not drawn) .
## Result < 0.1 µM

## Task Give the measured IC50 of CC[C@H](c1ccccc1)N1C(=O)c2ccccc2C1(O)c1ccc2[nH]c(NC(=O)OC)nc2c1 (stereo partly drawn) .
## Result 0.1 to 1 µM

## Task Give the measured IC50 of COC(=O)Nc1nc2cc(C3(O)c4ccccc4C(=O)N3c3ccc(F)cc3)ccc2[nH]1 (stereo not drawn) .
## Result < 0.1 µM

## Task Give the measured IC50 of COC(=O)Nc1nc2cc(C3(O)c4ccccc4C(=O)N3c3cccc(C(C)C)c3)ccc2[nH]1 (stereo not drawn) .
## Result < 0.1 µM

## Task Give the measured IC50 of C#CCOC(=O)Nc1nc2cc(C3(O)c4ccccc4C(=O)N3Cc3ccccc3)ccc2[nH]1 (stereo not drawn) .
## Result < 0.1 µM

## Task Give the measured IC50 of COC(=O)Nc1nc2cc(C3(O)c4ccccc4C(=O)N3c3cccc(C)c3)ccc2[nH]1 (stereo not drawn) .
## Result < 0.1 µM

## Task Give the measured IC50 of O=C1COc2ccc(C3(O)c4ccccc4C(=O)N3Cc3ccccc3Br)cc2N1 (stereo not drawn) .
## Result ≥ 10 µM

## Task Give the measured IC50 of O=C1COc2ccc(C3(O)c4ccccc4C(=O)N3c3cccc(Oc4ccccc4)c3)cc2N1 (stereo not drawn) .
## Result 1 to 10 µM
